test.target: CB1 receptor (Rattus norvegicus, UniProt P20272)
Construct: Whole rat brains or dissected regions from live CD rats; tissue Charles River or Pel-Freez Biologicals; host or cells: whole rat brain (CD rats), P2 membrane
Sequence (P20272 whole entry): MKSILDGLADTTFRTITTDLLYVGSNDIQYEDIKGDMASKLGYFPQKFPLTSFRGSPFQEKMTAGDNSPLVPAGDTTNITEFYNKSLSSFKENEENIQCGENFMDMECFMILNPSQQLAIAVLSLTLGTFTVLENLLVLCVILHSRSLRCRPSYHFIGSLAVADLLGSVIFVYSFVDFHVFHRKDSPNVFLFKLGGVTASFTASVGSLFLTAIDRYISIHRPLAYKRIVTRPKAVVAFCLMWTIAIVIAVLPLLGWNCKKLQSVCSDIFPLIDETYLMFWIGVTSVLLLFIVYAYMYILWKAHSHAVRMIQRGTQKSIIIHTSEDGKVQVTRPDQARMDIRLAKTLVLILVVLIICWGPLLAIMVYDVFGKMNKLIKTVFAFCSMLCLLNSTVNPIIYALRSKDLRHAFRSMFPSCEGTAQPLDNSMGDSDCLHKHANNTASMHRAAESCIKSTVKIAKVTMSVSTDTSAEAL
test.name: Radioligand displacement in whole rat brain (CB1) membrane preparations
Assay type: binding
experimental.setup: whole rat brain membranes; radioligand 3H-CP55940; Tables 1 and 2
observable: Max. Disp. %, 3H-CP55940 (%)
# value in %; strip the unit string

stdin: Using the record for CCCCCCC(C)(C)NC(=O)c1nn(-c2ccc(Cl)cc2Cl)c(-c2ccc(Cl)cc2)c1C [MF10110-119-11] , state its measured Max. Disp. %, 3H-CP55940.
stdout: 83.2

stdin: Annotate the compound CCCCCCCCNC(=O)c1nn(-c2ccc(Cl)cc2Cl)c(-c2ccc(Cl)cc2)c1C [MF9879-164-28] with its measured Max. Disp. %, 3H-CP55940.
stdout: 80.2

stdin: Tell me Max. Disp. %, 3H-CP55940 reported for CCNC(=O)c1nn(-c2ccc(Cl)cc2Cl)c(-c2ccc(Cl)cc2)c1C [MF9725-54C]
stdout: 91.4

stdin: Identify measured Max. Disp. %, 3H-CP55940 corresponding to Cc1c(C(=O)NC2CCCCC2)nn(-c2ccc(Cl)cc2Cl)c1-c1ccc(Cl)cc1 [MF9725-66-11]
stdout: 96.1

###

test.target: G-protein-linked cannabinoid receptors (Rattus norvegicus, UniProt P20272)
Construct: tissue Charles River or Pel-Freez Biologicals; host or cells: whole rat brain crude membrane homogenate
Sequence (P20272 whole entry): as above
test.name: GTP-γ-[35S] binding in whole rat brain
Format: biochemical
experimental.setup: read-out: Emax, GTP-γ-[35S] in Whole Rat Brain
observable: Emax (%)
Answer format: numeric, % implied, no suffix.

stdin: Tell me Emax reported for "CCCCCCCCNC(=O)c1nn(-c2ccc(Cl)cc2Cl)c(-c2ccc(Cl)cc2)c1C"
stdout: -21.3

stdin: Determine from records and report Emax for "CCCCCCCCCNC(=O)c1nn(-c2ccc(Cl)cc2Cl)c(-c2ccc(Cl)cc2)c1C"
stdout: -20.1

stdin: Note down Emax recorded for "CCCCCCCNC(=O)c1nn(-c2ccc(Cl)cc2Cl)c(-c2ccc(Cl)cc2)c1C"
stdout: -20

stdin: Using the record for "CCCCCNC(=O)c1nn(-c2ccc(Cl)cc2Cl)c(-c2ccc(Cl)cc2)c1C" , state its measured Emax.
stdout: -7.4

###

Record form. Attribute: Max. Disp. %, 3H-SR141716A. Fill in for each entry.
test.target: CB1 receptor (Rattus norvegicus, UniProt P20272)
Construct: Whole rat brains or dissected regions from live CD rats; tissue Charles River or Pel-Freez Biologicals; host or cells: whole rat brain (CD rats), P2 membrane
test.name: Radioligand displacement in whole rat brain (CB1) membrane preparations
Type: binding
experimental.setup: whole rat brain; 3H-SR141716A; Table 4, parallel synthesis analogs, n = 1
Entry rule: numbers only, all in %.

stdin: Please indicate recorded Max. Disp. %, 3H-SR141716A of Cc1c(C(=O)NC(C)CCC(C)C)nn(-c2ccc(Cl)cc2Cl)c1-c1ccc(Cl)cc1 (stereo not shown) measured with CB1 receptor (Rattus norvegicus, UniProt P20272).
stdout: 96.2

stdin: Fill in: Max. Disp. %, 3H-SR141716A on CB1 receptor (Rattus norvegicus, UniProt P20272), entry "CCCCCCCCCCNC(=O)c1nn(-c2ccc(Cl)cc2Cl)c(-c2ccc(Cl)cc2)c1C"
stdout: 92.5

stdin: // fetch Max. Disp. %, 3H-SR141716A for CCC(C)CC(C)NC(=O)c1nn(-c2ccc(Cl)cc2Cl)c(-c2ccc(Cl)cc2)c1C (stereo not shown) ; system: CB1 receptor (Rattus norvegicus, UniProt P20272)
stdout: 96.3

stdin: State, for CB1 receptor (Rattus norvegicus, UniProt P20272), measured Max. Disp. %, 3H-SR141716A of the compound listed here: "CC(C)=CCC/C(C)=C/CNC(=O)c1nn(-c2ccc(Cl)cc2Cl)c(-c2ccc(Cl)cc2)c1C"
stdout: 95.7

###

test.target: CB1 receptor (Rattus norvegicus)
Construct: Whole rat brains or dissected regions from live CD rats; tissue Charles River or Pel-Freez Biologicals; host or cells: whole rat brain (CD rats), P2 membrane
test.name: Radioligand displacement in whole rat brain (CB1) membrane preparations
Type: binding
experimental.setup: whole rat brain; 3H-SR141716A; Table 4, parallel synthesis analogs, n = 1
observable: Max. Disp. %, 3H-SR141716A
Form entry: enter the amount, then its unit.

stdin: Identify Max. Disp. %, 3H-SR141716A associated with the molecule "CCCCCCCCCCCCCNC(=O)c1nn(-c2ccc(Cl)cc2Cl)c(-c2ccc(Cl)cc2)c1C"
stdout: 97.6%

stdin: Respond only with Max. Disp. %, 3H-SR141716A recorded for "CCCCCCCCCCCCNC(=O)c1nn(-c2ccc(Cl)cc2Cl)c(-c2ccc(Cl)cc2)c1C"
stdout: 95.6%

stdin: Fill in Max. Disp. %, 3H-SR141716A for record "Cc1c(C(=O)N2CCc3ccccc3C2)nn(-c2ccc(Cl)cc2Cl)c1-c1ccc(Cl)cc1"
stdout: 90.5%

stdin: Name the recorded Max. Disp. %, 3H-SR141716A of the item Cc1c(C(=O)NC(C)CCCC(C)C)nn(-c2ccc(Cl)cc2Cl)c1-c1ccc(Cl)cc1 (stereo not shown) in your answer.
stdout: 95.1%

###

Provide the recorded Max. Disp. %, 3H-WIN55212-2 for the entries that follow.
test.target: CB1 receptor (Rattus norvegicus, UniProt P20272)
Construct: Whole rat brains or dissected regions from live CD rats; tissue Charles River or Pel-Freez Biologicals; host or cells: whole rat brain (CD rats), P2 membrane
test.name: Radioligand displacement in whole rat brain (CB1) membrane preparations
Format: binding
experimental.setup: whole rat brain membranes; radioligand 3H-WIN55212-2; Tables 1 and 2
Could you give the number and then its unit, please?

stdin: Answer with the recorded Max. Disp. %, 3H-WIN55212-2 for the molecule listed here: "CCCCCCC(C)(C)NC(=O)c1nn(-c2ccc(Cl)cc2Cl)c(-c2ccc(Cl)cc2)c1C"
stdout: 72.2%

stdin: Determine from records and report Max. Disp. %, 3H-WIN55212-2 for "CCCCCNC(=O)c1nn(-c2ccc(Cl)cc2Cl)c(-c2ccc(Cl)cc2)c1C"
stdout: 94.4%

stdin: Quote Max. Disp. %, 3H-WIN55212-2 reported for "CCCCNC(=O)c1nn(-c2ccc(Cl)cc2Cl)c(-c2ccc(Cl)cc2)c1C" please.
stdout: 90.8%

stdin: State, in one line, measured Max. Disp. %, 3H-WIN55212-2 of "CCCCCCCNC(=O)c1nn(-c2ccc(Cl)cc2Cl)c(-c2ccc(Cl)cc2)c1C"
stdout: 69.6%

stdin: Return the recorded Max. Disp. %, 3H-WIN55212-2 value; entry: "Cc1c(C(=O)NCC(C)C)nn(-c2ccc(Cl)cc2Cl)c1-c1ccc(Cl)cc1"
stdout: 90.9%

stdin: Fill in reported Max. Disp. %, 3H-WIN55212-2 for this entry: "Cc1c(C(=O)NC(C)C)nn(-c2ccc(Cl)cc2Cl)c1-c1ccc(Cl)cc1"
stdout: 90.6%

stdin: Output measured Max. Disp. %, 3H-WIN55212-2 for this item: "CCCCCCNC(=O)c1nn(-c2ccc(Cl)cc2Cl)c(-c2ccc(Cl)cc2)c1C"
stdout: 77.9%

stdin: Read off the recorded Max. Disp. %, 3H-WIN55212-2 for "CCCCCCCCCNC(=O)c1nn(-c2ccc(Cl)cc2Cl)c(-c2ccc(Cl)cc2)c1C"
stdout: 68.6%

stdin: Name the recorded Max. Disp. %, 3H-WIN55212-2 of the item "CCCCCCCCNC(=O)c1nn(-c2ccc(Cl)cc2Cl)c(-c2ccc(Cl)cc2)c1C" in your answer.
stdout: 68.4%

stdin: Determine its reported Max. Disp. %, 3H-WIN55212-2: "Cc1c(C(=O)NC2CCCCC2)nn(-c2ccc(Cl)cc2Cl)c1-c1ccc(Cl)cc1"
stdout: 92.6%

###

test.target: CB1 receptor (Rattus norvegicus)
Construct: Whole rat brains or dissected regions from live CD rats; tissue Charles River or Pel-Freez Biologicals; host or cells: whole rat brain (CD rats), P2 membrane
test.name: Radioligand displacement in whole rat brain (CB1) membrane preparations
Type: binding
experimental.setup: whole rat brain; 3H-WIN55212-2; Table 4, parallel synthesis analogs, n = 1
observable: Max. Disp. %, 3H-WIN55212-2 (%)
Value expressed in %; do not type the unit.

stdin: Using the record for CCCCCCCCCC(C)NC(=O)c1nn(-c2ccc(Cl)cc2Cl)c(-c2ccc(Cl)cc2)c1C (stereo not shown) , state its measured Max. Disp. %, 3H-WIN55212-2.
stdout: 82.4

stdin: Give Max. Disp. %, 3H-WIN55212-2 for "CCCCCCCCCCNC(=O)c1nn(-c2ccc(Cl)cc2Cl)c(-c2ccc(Cl)cc2)c1C"
stdout: 67.4

stdin: Fill in reported Max. Disp. %, 3H-WIN55212-2 for this entry: "Cc1c(C(=O)NCCc2ccc(O)cc2)nn(-c2ccc(Cl)cc2Cl)c1-c1ccc(Cl)cc1"
stdout: 94.9

stdin: Return Max. Disp. %, 3H-WIN55212-2 for the following compound: "Cc1c(C(=O)N2CCC(O)(c3ccccc3)CC2)nn(-c2ccc(Cl)cc2Cl)c1-c1ccc(Cl)cc1"
stdout: 94.4
